For each of the compounds below, state its ABUTH rating.
- Tested on: Abutilon theophrasti (ABUTH, velvetleaf)
- protocol: Pre-emergence herbicidal evaluation
- Type: in vivo
- condition_context: rate 0.100 kg/ha, 3 weeks after treatment

Request: Report ABUTH rating for Cc1cc(OCCSC(F)(F)F)nc(Oc2ccnc(C(F)(F)F)c2)c1 [Example 51] tested on Abutilon theophrasti (ABUTH, velvetleaf).
Result: 9 (9 - Complete kill)

Request: Also Cc1cc(OCCC(Cl)SC(F)(F)F)nc(Oc2cc(C(F)(F)F)nn2C)c1 (stereo not shown) [Example 3] ?
Result: 5 (5 - Definite injury)

Request: Also Cc1cc(OCC=CSC(F)(F)F)nc(Oc2cc(C(F)(F)F)nn2C)c1 [Example 2] ?
Result: 7 (7 - Good herbicidal effect)

Request: Also Cc1cc(OCCCSC(F)(F)F)nc(Oc2cc(C(F)(F)F)nn2C)c1 [Example 4] ?
Result: 7 (7 - Good herbicidal effect)

Request: Also Cc1cc(OCCSC(F)(F)F)nc(Oc2cc(C(F)(F)F)nn2C)c1 [Example 1] ?
Result: 9 (9 - Complete kill)

Request: Also Cc1cc(OCC=C(Cl)SC(F)(F)F)nc(Oc2cc(C(F)(F)F)nn2C)c1 [Example 5] ?
Result: 8 (8 - Approaching complete kill)

Request: Also Cc1cc(OCCCSC(F)(F)F)nc(Oc2ccnc(C(F)(F)F)c2)c1 [Example 53] ?
Result: 9 (9 - Complete kill)

----------
- Test system: Alopecurus myosuroides (ALOMY, black grass)
- protocol: Post-emergence herbicidal evaluation
- Format: in vivo
- condition_context: rate 0.025 kg/ha, 3 weeks after treatment
experimental_endpoint: ALOMY rating

Request: Report ALOMY rating for Cc1cc(OCC=CSC(F)(F)F)nc(Oc2cc(C(F)(F)F)nn2C)c1 [Example 2] please.
Result: 7 (7 - Good herbicidal effect)

Request: Also Cc1cc(OCCCSC(F)(F)F)nc(Oc2ccnc(C(F)(F)F)c2)c1 [Example 53] ?
Result: 6 (6 - Herbicidal effect)

Request: Also Cc1cc(OCCSC(F)(F)F)nc(Oc2ccnc(C(F)(F)F)c2)c1 [Example 51] ?
Result: 4 (4 - Injury)

Request: Also Cc1cc(OCCC(Cl)SC(F)(F)F)nc(Oc2cc(C(F)(F)F)nn2C)c1 (stereo not shown) [Example 3] ?
Result: 5 (5 - Definite injury)

Request: Also Cc1cc(OCC=C(Cl)SC(F)(F)F)nc(Oc2cc(C(F)(F)F)nn2C)c1 [Example 5] ?
Result: 6 (6 - Herbicidal effect)

Request: Also Cc1cc(OCCSC(F)(F)F)nc(Oc2cc(C(F)(F)F)nn2C)c1 [Example 1] ?
Result: 4 (4 - Injury)

Request: Also Cc1cc(OCCCSC(F)(F)F)nc(Oc2cc(C(F)(F)F)nn2C)c1 [Example 4] ?
Result: 6 (6 - Herbicidal effect)

----------
For each of the molecules below, state its ECHCG rating.
- System: Echinochloa grus galli (ECHCG, barnyard grass)
- protocol: Pre-emergence herbicidal evaluation
- Type: in vivo
- condition_context: rate 0.025 kg/ha, 3 weeks after treatment

Request: Report ECHCG rating for "Cc1cc(OCCCSC(F)(F)F)nc(Oc2ccnc(C(F)(F)F)c2)c1" please.
Result: 7 (7 - Good herbicidal effect)

Request: Also "Cc1cc(OCCSC(F)(F)F)nc(Oc2cc(C(F)(F)F)nn2C)c1" ?
Result: 7 (7 - Good herbicidal effect)

Request: Also "Cc1cc(OCC=C(Cl)SC(F)(F)F)nc(Oc2cc(C(F)(F)F)nn2C)c1" ?
Result: 6 (6 - Herbicidal effect)

Request: Also "Cc1cc(OCCSC(F)(F)F)nc(Oc2ccnc(C(F)(F)F)c2)c1" ?
Result: 7 (7 - Good herbicidal effect)

Request: Also "Cc1cc(OCC=CSC(F)(F)F)nc(Oc2cc(C(F)(F)F)nn2C)c1" ?
Result: 7 (7 - Good herbicidal effect)

Request: Also Cc1cc(OCCC(Cl)SC(F)(F)F)nc(Oc2cc(C(F)(F)F)nn2C)c1 (stereo not shown) ?
Result: 4 (4 - Injury)

Request: Also "Cc1cc(OCCCSC(F)(F)F)nc(Oc2cc(C(F)(F)F)nn2C)c1" ?
Result: 3 (3 - Moderate effect)

----------
- Test system: Matricaria inodora (MATIN, mayweed)
- protocol: Pre-emergence herbicidal evaluation
- Type: in vivo
- condition_context: rate 0.100 kg/ha, 3 weeks after treatment
For each of the molecules below, state its MATIN rating.

Request: Report MATIN rating for Cc1cc(OCCC(Cl)SC(F)(F)F)nc(Oc2cc(C(F)(F)F)nn2C)c1 (stereo not shown) [Example 3] please.
Result: 9 (9 - Complete kill)

Request: Also Cc1cc(OCC=C(Cl)SC(F)(F)F)nc(Oc2cc(C(F)(F)F)nn2C)c1 [Example 5] ?
Result: 8 (8 - Approaching complete kill)

Request: Also Cc1cc(OCCSC(F)(F)F)nc(Oc2ccnc(C(F)(F)F)c2)c1 [Example 51] ?
Result: 9 (9 - Complete kill)

Request: Also Cc1cc(OCCSC(F)(F)F)nc(Oc2cc(C(F)(F)F)nn2C)c1 [Example 1] ?
Result: 9 (9 - Complete kill)

Request: Also Cc1cc(OCCCSC(F)(F)F)nc(Oc2cc(C(F)(F)F)nn2C)c1 [Example 4] ?
Result: 8 (8 - Approaching complete kill)

Request: Also Cc1cc(OCC=CSC(F)(F)F)nc(Oc2cc(C(F)(F)F)nn2C)c1 [Example 2] ?
Result: 8 (8 - Approaching complete kill)

Request: Also Cc1cc(OCCCSC(F)(F)F)nc(Oc2ccnc(C(F)(F)F)c2)c1 [Example 53] ?
Result: 8 (8 - Approaching complete kill)

----------
For each of the molecules below, state its ABUTH rating.
- Tested on: Abutilon theophrasti (ABUTH, velvetleaf)
- protocol: Pre-emergence herbicidal evaluation
- Assay type: in vivo
- condition_context: rate 0.400 kg/ha, 3 weeks after treatment

Request: Report ABUTH rating for Cc1cc(OCCCSC(F)(F)F)nc(Oc2cc(C(F)(F)F)nn2C)c1 [Example 4] tested on Abutilon theophrasti (ABUTH, velvetleaf).
Result: 9 (9 - Complete kill)

Request: Also Cc1cc(OCC=C(Cl)SC(F)(F)F)nc(Oc2cc(C(F)(F)F)nn2C)c1 [Example 5] ?
Result: 8 (8 - Approaching complete kill)

Request: Also Cc1cc(OCC=CSC(F)(F)F)nc(Oc2cc(C(F)(F)F)nn2C)c1 [Example 2] ?
Result: 8 (8 - Approaching complete kill)

Request: Also Cc1cc(OCCC(Cl)SC(F)(F)F)nc(Oc2cc(C(F)(F)F)nn2C)c1 (stereo not shown) [Example 3] ?
Result: 7 (7 - Good herbicidal effect)

Request: Also Cc1cc(OCCSC(F)(F)F)nc(Oc2cc(C(F)(F)F)nn2C)c1 [Example 1] ?
Result: 9 (9 - Complete kill)

Request: Also Cc1cc(OCCSC(F)(F)F)nc(Oc2ccnc(C(F)(F)F)c2)c1 [Example 51] ?
Result: 9 (9 - Complete kill)

Request: Also Cc1cc(OCCCSC(F)(F)F)nc(Oc2ccnc(C(F)(F)F)c2)c1 [Example 53] ?
Result: 9 (9 - Complete kill)

----------
- Test system: Alopecurus myosuroides (ALOMY, black grass)
- protocol: Post-emergence herbicidal evaluation
- Type: in vivo
- condition_context: rate 0.100 kg/ha, 3 weeks after treatment
experimental_endpoint: ALOMY rating

Request: Report ALOMY rating for "Cc1cc(OCCCSC(F)(F)F)nc(Oc2cc(C(F)(F)F)nn2C)c1" please.
Result: 8 (8 - Approaching complete kill)

Request: Also "Cc1cc(OCCSC(F)(F)F)nc(Oc2cc(C(F)(F)F)nn2C)c1" ?
Result: 7 (7 - Good herbicidal effect)

Request: Also "Cc1cc(OCC=CSC(F)(F)F)nc(Oc2cc(C(F)(F)F)nn2C)c1" ?
Result: 7 (7 - Good herbicidal effect)

Request: Also Cc1cc(OCCC(Cl)SC(F)(F)F)nc(Oc2cc(C(F)(F)F)nn2C)c1 (stereo not shown) ?
Result: 7 (7 - Good herbicidal effect)

Request: Also "Cc1cc(OCCCSC(F)(F)F)nc(Oc2ccnc(C(F)(F)F)c2)c1" ?
Result: 8 (8 - Approaching complete kill)

Request: Also "Cc1cc(OCCSC(F)(F)F)nc(Oc2ccnc(C(F)(F)F)c2)c1" ?
Result: 7 (7 - Good herbicidal effect)

Request: Also "Cc1cc(OCC=C(Cl)SC(F)(F)F)nc(Oc2cc(C(F)(F)F)nn2C)c1" ?
Result: 7 (7 - Good herbicidal effect)

----------
- System: Stellaria media (STEME, chickweed)
- protocol: Pre-emergence herbicidal evaluation
- Format: in vivo
- condition_context: rate 0.025 kg/ha, 3 weeks after treatment
experimental_endpoint: STEME rating

Request: Report STEME rating for "Cc1cc(OCCSC(F)(F)F)nc(Oc2cc(C(F)(F)F)nn2C)c1" please.
Result: 9 (9 - Complete kill)

Request: Also "Cc1cc(OCCSC(F)(F)F)nc(Oc2ccnc(C(F)(F)F)c2)c1" ?
Result: 9 (9 - Complete kill)

Request: Also "Cc1cc(OCC=C(Cl)SC(F)(F)F)nc(Oc2cc(C(F)(F)F)nn2C)c1" ?
Result: 9 (9 - Complete kill)

Request: Also "Cc1cc(OCC=CSC(F)(F)F)nc(Oc2cc(C(F)(F)F)nn2C)c1" ?
Result: 9 (9 - Complete kill)

Request: Also "Cc1cc(OCCCSC(F)(F)F)nc(Oc2ccnc(C(F)(F)F)c2)c1" ?
Result: 9 (9 - Complete kill)

Request: Also "Cc1cc(OCCCSC(F)(F)F)nc(Oc2cc(C(F)(F)F)nn2C)c1" ?
Result: 9 (9 - Complete kill)

Request: Also Cc1cc(OCCC(Cl)SC(F)(F)F)nc(Oc2cc(C(F)(F)F)nn2C)c1 (stereo not shown) ?
Result: 9 (9 - Complete kill)
